Below are IC50 values measured for Neuraminidase (Influenza A virus (A/Puerto Rico/8/1934(H1N1)), UniProt P03468).
The reply should be a number in nM, with the unit left off.

Recorded IC50, per entry:
CCCCCCCCO[C@H](CC)[C@@H]1OC(C(=O)O)=C[C@H](N=C(N)N)[C@H]1NC(C)=O.O=C(O)C(F)(F)F = 31.5
CC(=O)N[C@H]1[C@H]([C@H](OCCC2CCCCC2)[C@H](O)CO)OC(C(=O)O)=C[C@@H]1NC(=N)N.O=C(O)C(F)(F)F = 47.3
CCCCCCCCO[C@@H]([C@@H]1OC(C(=O)O)=C[C@H](N=C(N)N)[C@H]1NC(C)=O)[C@H](O)CO.O=C(O)C(F)(F)F = 36.2

Switching to the query record.
q: Please provide the recorded IC50 for CCCO[C@H](CC)[C@@H]1OC(C(=O)O)=C[C@H](N=C(N)N)[C@H]1NC(C)=O.O=C(O)C(F)(F)F , tested on Neuraminidase (Influenza A virus (A/Puerto Rico/8/1934(H1N1)), UniProt P03468).
Sequence (P03468 whole entry): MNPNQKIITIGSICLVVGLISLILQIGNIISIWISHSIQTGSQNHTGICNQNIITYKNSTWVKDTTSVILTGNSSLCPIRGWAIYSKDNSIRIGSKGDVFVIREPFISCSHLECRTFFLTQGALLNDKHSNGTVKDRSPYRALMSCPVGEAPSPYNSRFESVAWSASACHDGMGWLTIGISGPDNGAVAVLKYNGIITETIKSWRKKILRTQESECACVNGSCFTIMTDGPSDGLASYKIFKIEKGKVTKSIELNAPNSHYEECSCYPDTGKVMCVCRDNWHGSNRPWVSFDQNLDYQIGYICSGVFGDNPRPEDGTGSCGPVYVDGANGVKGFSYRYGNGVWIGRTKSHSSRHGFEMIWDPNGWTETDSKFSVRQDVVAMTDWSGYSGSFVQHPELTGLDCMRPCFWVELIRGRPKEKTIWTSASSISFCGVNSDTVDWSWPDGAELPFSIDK
a: 30.9

----------
system: Influenza A virus; experiment: In vitro antiviral activity against Influenza A.; type: functional, organism-based
Lab note: anything with IC50 below 4 ng/mL is marked Met; values at 4 ng/mL or higher are marked Not met.

CC(=O)N[C@H]1[C@H]([C@H](OCCO)[C@H](O)CO)OC(C(=O)O)=C[C@@H]1NC(=N)N.O=C(O)C(F)(F)F = Met

q: I wonder whether CCCCCCCCCCCCCCO[C@@H]([C@@H]1OC(C(=O)O)=C[C@H](N=C(N)N)[C@H]1NC(C)=O)[C@H](O)CO.O=C(O)C(F)(F)F has IC50 below 4 ng/mL. Can you tell?
a: Not met

q: I wonder whether CCCCCCCCCCCCO[C@H](CC)[C@@H]1OC(C(=O)O)=C[C@H](N=C(N)N)[C@H]1NC(C)=O.O=C(O)C(F)(F)F has IC50 below 4 ng/mL. Can you tell?
a: Not met

q: I wonder whether CC(=O)N[C@H]1[C@H]([C@H](OCCN)[C@H](O)CO)OC(C(=O)O)=C[C@@H]1NC(=N)N.O=C(O)C(F)(F)F has IC50 below 4 ng/mL. Can you tell?
a: Not met

q: I wonder whether CCCCCO[C@H](CC)[C@@H]1OC(C(=O)O)=C[C@H](N=C(N)N)[C@H]1NC(C)=O.O=C(O)C(F)(F)F has IC50 below 4 ng/mL. Can you tell?
a: Met

q: I wonder whether CCCO[C@H](CC)[C@@H]1OC(C(=O)O)=C[C@H](N=C(N)N)[C@H]1NC(C)=O.O=C(O)C(F)(F)F has IC50 below 4 ng/mL. Can you tell?
a: Not met

q: I wonder whether CC(=O)N[C@H]1[C@H]([C@H](OCCC2CCCCC2)[C@H](O)CO)OC(C(=O)O)=C[C@@H]1NC(=N)N.O=C(O)C(F)(F)F has IC50 below 4 ng/mL. Can you tell?
a: Met

q: I wonder whether CCCCCCCCO[C@H](CC)[C@@H]1OC(C(=O)O)=C[C@H](N=C(N)N)[C@H]1NC(C)=O.O=C(O)C(F)(F)F has IC50 below 4 ng/mL. Can you tell?
a: Not met

q: I wonder whether CCCCCCCCO[C@@H]([C@@H]1OC(C(=O)O)=C[C@H](N=C(N)N)[C@H]1NC(C)=O)[C@H](O)CO.O=C(O)C(F)(F)F has IC50 below 4 ng/mL. Can you tell?
a: Met

----------
Below are pIC50 values measured for Neuraminidase (Influenza A virus (A/Puerto Rico/8/1934(H1N1))).
Interpret pIC50 as the negative base-10 log of the concentration measured in mol/L.

Recorded pIC50, per entry:
CCCCCCCCCCCCCCO[C@@H]([C@@H]1OC(C(=O)O)=C[C@H](N=C(N)N)[C@H]1NC(C)=O)[C@H](O)CO.O=C(O)C(F)(F)F = 6.39
CCCCCO[C@H](CC)[C@@H]1OC(C(=O)O)=C[C@H](N=C(N)N)[C@H]1NC(C)=O.O=C(O)C(F)(F)F = 7.73
CC(=O)NCCO[C@@H]([C@@H]1OC(C(=O)O)=C[C@H](N=C(N)N)[C@H]1NC(C)=O)[C@H](O)CO.O=C(O)C(F)(F)F = 7.73
CC(=O)N[C@H]1[C@H]([C@H](OCCN=[N+]=[N-])[C@H](O)CO)OC(C(=O)O)=C[C@@H]1NC(=N)N.O=C(O)C(F)(F)F = 7.54
CC(=O)N[C@H]1[C@H]([C@H](OCC2CCCCC2)[C@H](O)CO)OC(C(=O)O)=C[C@@H]1NC(=N)N.O=C(O)C(F)(F)F = 7.17

q: # pIC50 lookup, item CC(=O)N[C@H]1[C@H]([C@H](OCCN)[C@H](O)CO)OC(C(=O)O)=C[C@@H]1NC(=N)N.O=C(O)C(F)(F)F
a: 7.01

----------
Below are IC50 values measured for Neuraminidase (Influenza A virus (A/Puerto Rico/8/1934(H1N1))).
The reply should be a number in nM, with the unit left off.

Recorded IC50, per entry:
CCO[C@H](CC)[C@@H]1OC(C(=O)O)=C[C@H](N=C(N)N)[C@H]1NC(C)=O.O=C(O)C(F)(F)F = 79.3
CCCCCCCCCCCCO[C@H](CC)[C@@H]1OC(C(=O)O)=C[C@H](N=C(N)N)[C@H]1NC(C)=O.O=C(O)C(F)(F)F = 48.7
CCCO[C@@H]([C@@H]1OC(C(=O)O)=C[C@H](N=C(N)N)[C@H]1NC(C)=O)[C@H](O)CO.O=C(O)C(F)(F)F = 62.7
CCCCCO[C@@H]([C@@H]1OC(C(=O)O)=C[C@H](N=C(N)N)[C@H]1NC(C)=O)[C@H](O)CO.O=C(O)C(F)(F)F = 27.7
CC(=O)N[C@H]1[C@H]([C@H](OCCO)[C@H](O)CO)OC(C(=O)O)=C[C@@H]1NC(=N)N.O=C(O)C(F)(F)F = 21

q: Please provide the recorded IC50 for CCO[C@@H]([C@@H]1OC(C(=O)O)=C[C@H](N=C(N)N)[C@H]1NC(C)=O)[C@H](O)CO , tested on Neuraminidase (Influenza A virus (A/Puerto Rico/8/1934(H1N1))).
a: 55.7

q: Please provide the recorded IC50 for CCCCCCCCCCCCO[C@@H]([C@@H]1OC(C(=O)O)=C[C@H](N=C(N)N)[C@H]1NC(C)=O)[C@H](O)CO.O=C(O)C(F)(F)F , tested on Neuraminidase (Influenza A virus (A/Puerto Rico/8/1934(H1N1))).
a: 80.7

----------
Listed below: IC50 values for each entry.
tested on: Influenza A virus; assay: In vitro antiviral activity against Influenza A.; type: functional, organism-based

Recorded IC50, per entry:
CCCCCO[C@@H]([C@@H]1OC(C(=O)O)=C[C@H](N=C(N)N)[C@H]1NC(C)=O)[C@H](O)CO.O=C(O)C(F)(F)F = 2 ng/mL
CCCO[C@@H]([C@@H]1OC(C(=O)O)=C[C@H](N=C(N)N)[C@H]1NC(C)=O)[C@H](O)CO.O=C(O)C(F)(F)F = 1.5 ng/mL
CC(=O)N[C@H]1[C@H]([C@H](OCC2CCCCC2)[C@H](O)CO)OC(C(=O)O)=C[C@@H]1NC(=N)N.O=C(O)C(F)(F)F = 3 ng/mL
CC(=O)N[C@H]1[C@H]([C@H](OCCN=[N+]=[N-])[C@H](O)CO)OC(C(=O)O)=C[C@@H]1NC(=N)N.O=C(O)C(F)(F)F = 1.5 ng/mL
CC(=O)NCCO[C@@H]([C@@H]1OC(C(=O)O)=C[C@H](N=C(N)N)[C@H]1NC(C)=O)[C@H](O)CO.O=C(O)C(F)(F)F = 2.4 ng/mL
CCO[C@H](CC)[C@@H]1OC(C(=O)O)=C[C@H](N=C(N)N)[C@H]1NC(C)=O.O=C(O)C(F)(F)F = 16 ng/mL

Switching to the query record.
q: # IC50 lookup, item CCCCCCCCCCCCO[C@@H]([C@@H]1OC(C(=O)O)=C[C@H](N=C(N)N)[C@H]1NC(C)=O)[C@H](O)CO.O=C(O)C(F)(F)F
a: 2.2 ng/mL
